Source listed as PubChem BioAssay (NCI).

# Test system: CAKI-1 renal
# assay: NCI tumour cell line growth inhibition, 48 h
measured_metric: TGI

Look up and report TGI, with CAKI-1 renal as system, for Nc1nc(N)c(C2=CCN(Cc3ccccc3)CC2)c(=O)[nH]1
> 100 µM

Look up and report TGI, with CAKI-1 renal as system, for COc1ccc(-c2cnoc2-c2ccc(OC)c(OC)c2)cc1OC
> 68.1 µM

Look up and report TGI, with CAKI-1 renal as system, for CC(N=C(N)N)C(=O)O (stereo unspecified)
> 100 µM

Look up and report TGI, with CAKI-1 renal as system, for CCN(CC)c1ccc2c(c1)OC(=O)C(c1nnc(-c3ccc([N+](=O)[O-])cc3)o1)C2 (stereo unspecified)
> 100 µM

Look up and report TGI, with CAKI-1 renal as system, for CC(C)N(C(=O)C12C3C4C5C3C1(C(=O)N(C(C)C)C(C)C)C5(C#N)C42)C(C)C (stereo unspecified)
> 100 µM

Look up and report TGI, with CAKI-1 renal as system, for COc1cc2ccccc2c2cc([N+](=O)[O-])oc12
> 100 µM

Look up and report TGI, with CAKI-1 renal as system, for CCOC(=O)[C@@H]1C[C@H]1c1ccc(O)c(O)c1
> 100 µM

Look up and report TGI, with CAKI-1 renal as system, for COc1cc2c(c(OC)c1OC)C(=O)CC(c1cccc(NC(=O)c3ccc(Br)cc3)c1)O2 (stereo unspecified)
> 100 µM

Look up and report TGI, with CAKI-1 renal as system, for CC1=C(C(=O)N[C@@H](Cc2ccccc2)C(=O)O)N2C(=O)[C@@H](NC(=O)[C@@H](N)CC(C)C)[C@H]2SC1
> 100 µM

Look up and report TGI, with CAKI-1 renal as system, for COc1cccc(/C(CC(O)(C(F)(F)F)C(F)(F)F)=N\N(C)C)c1
> 100 µM

Look up and report TGI, with CAKI-1 renal as system, for c1cc(-c2csc(-c3ccsc3)c2)cs1
> 100 µM

Look up and report TGI, with CAKI-1 renal as system, for CC1(C)C(c2ccccc2)C12CCC1(C2=O)C(c2ccccc2)C1(C)C (stereo unspecified)
60.3 µM

Look up and report TGI, with CAKI-1 renal as system, for C=C1C(=O)O[C@H]2[C@H]1CC/C(Cn1cc(CNCCc3c[nH]c4ccc(Cl)cc34)nn1)=C\CC[C@@]1(C)O[C@@H]21
28.7 µM

Look up and report TGI, with CAKI-1 renal as system, for CC1=NN(c2nc(N)nc(/C(C#N)=C/c3ccc([N+](=O)[O-])o3)n2)C(C)(C)C1
3.81 µM

Look up and report TGI, with CAKI-1 renal as system, for O=c1oc2cc(N=Cc3ccccc3Cl)ccc2c2ccccc12
> 100 µM

Look up and report TGI, with CAKI-1 renal as system, for CCOC(=O)C1=C(C)NC2SC(=O)/C(=C\c3ccccc3Cl)N2C1c1ccccc1 (stereo unspecified)
> 100 µM

* * *

# System: HL-60(TB) leukemia
# assay: NCI tumour cell line growth inhibition, 48 h; in the data active = GI50 below about 0.43 µM; inactive = the rest
Select the matching outcome among true = active, false = inactive

Answered cases to consult:
                                   molecule  class
0  COc1cc(-c2n/c(=C\c3c(O)[nH]c4ccc(Cl)cc34)cc3c2=Nc2ccccc2-3)cc(OC)c1OC  false
1  COc1ccc2c(c1)[C@]1(C[C@H]1c1ccc3c(/C=C/c4ccc(CN5C[C@@H](C)O[C@@H](C)C5)cc4)n[nH]c3c1)C(=O)N2  false
2  O=C(CCCn1c(=O)c2sc3ccccc3c2n2nnc(-c3ccccc3)c12)NCCc1cnc[nH]1  false

Please state the recorded outcome for this molecule: CCCCN(CCCC)c1ccc(C(=N)c2ccc(N(C)C)cc2)cc1
true

Please state the recorded outcome for this molecule: Oc1c(C(Nc2cccc3ccccc23)c2ccccc2)ccc2cccnc12 (stereo not given)
false

Please state the recorded outcome for this molecule: Cc1cc(Cc2cc(C)c(O)c(C)c2)cc(C)c1O
false

Please state the recorded outcome for this molecule: COc1cc(/C=N/Nc2ncnc3c2cnn3C(C)C)ccc1O
false

Please state the recorded outcome for this molecule: O=S(=O)(Nc1cc(Br)c(O)c2ccccc12)c1ccc(F)cc1
false

Please state the recorded outcome for this molecule: Cc1oc2nc[nH]c(=O)c2c1C(=O)/C=C/c1ccc(Cl)cc1
false

Please state the recorded outcome for this molecule: NC(=O)c1cc(-c2ccncc2)cc(-c2ccccc2)c1N
false
